The measurements presented in this section are drawn from patent US5674911A.

Protocol Text: growth / cytotoxicity in Vero cells
Cond: african green monkey, vero cells
Test Readout: CC50 at 96 h (µM)

[[record]]
query_smiles = "Cc1cn([C@H]2C[C@H](N=[N+]=[N-])[C@@H](CO)O2)c(=O)[nH]c1=O"
unit_descriptor = "µM"
val = 50.6


====

System: HIV-1 (strain LAV-1)
Protocol Text: anti-HIV-1 assay in PBMC (reverse transcriptase activity)
Type: cell-based
Cond: Human immunodeficiency virus 1, PBMC, 144 h, read-out: Anti-HIV-1 in PBMC: EC50
pEC50: −log10 of the molar value.
Test Readout: pEC50

[[record]]
query_smiles = "Cc1cn([C@H]2C[C@H](N=[N+]=[N-])[C@@H](CO)O2)c(=O)[nH]c1=O"
val = 8.25


====

Protocol Text: in vitro
Cond: human, pha-stimulated pbmc
Test Readout: CC50 at 144 h

[[record]]
molecule = "Cc1cn([C@H]2C[C@H](N=[N+]=[N-])[C@@H](CO)O2)c(=O)[nH]c1=O [AZT, azidothymidine]"
val = "> 100 µM"

